# System: MCF7 (MCF7/ATCC) cells
# Test protocol: Cell viability (cell kill) assay, nuclear counts
# Format: cell-based
# Condition set: MCF7/ATCC; Table 20
Measured metric: % Kill (%)
Your answer should be a plain number; it is taken to be in %.

In: # return recorded % Kill for input H1H6953N-mc-VC-PAB-MMD (conjugate) VH: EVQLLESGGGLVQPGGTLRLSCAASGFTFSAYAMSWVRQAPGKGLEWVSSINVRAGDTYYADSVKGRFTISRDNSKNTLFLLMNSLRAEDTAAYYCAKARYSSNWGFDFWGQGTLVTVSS VL: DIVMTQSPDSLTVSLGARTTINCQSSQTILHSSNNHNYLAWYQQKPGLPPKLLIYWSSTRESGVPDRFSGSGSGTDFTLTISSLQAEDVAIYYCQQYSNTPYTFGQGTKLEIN
Out: 50
